Where do these numbers come from? They come from paper PMC5540273.

Quick list: %Inh per entry.
Tested on: FAK
Construct: gene PTK2
settings: concentration: 1 μM, replicates: in singlicate; n = 1;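 also: KINOMEscan kinase panel screen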
Could you give me the number in %? Just the number is fine.

A selection of reference data follows.
Memo: CCCc1ccc(S(=O)(=O)NC2CCN(c3ccnc(Nc4ccc(OC)cc4)n3)C2)cc1 (stereo not shown) , reported %Inh: 0

Memo: Nc1nc(-c2ccc3c(N)n[nH]c3c2)cc(N2CCCCC2)n1 , reported %Inh: 0

More entries:
Memo: O=C(CCO)NCCn1ccc2ncnc(Nc3ccc(Oc4cccc(C(F)(F)F)c4)c(Cl)c3)c21 , reported %Inh: 0

Memo: CSc1ccc(NC2=C(c3ccccc3Cl)C(=O)NC2=O)cc1 , reported %Inh: 0

Memo: Oc1ccc2ncnc(Nc3ccc(OCc4ccccc4)cc3)c2c1 , reported %Inh: 0

Memo: O=C(c1ccc(-c2cc(-c3c[nH]nc3-c3ccccn3)ccn2)cc1)N1CCCC1 , reported %Inh: 47

Memo: FC(F)(F)c1ccc(-c2nn3ncccc3c2-c2ccnc(Nc3cccc(C(F)(F)F)c3)n2)cc1 , reported %Inh: 9

###

System: RAF1
settings: concentration: 1 μM, replicates: in singlicate; n = 1
Note to self: %Inh under 10% means label 1, ties and anything higher get label 0.

Worked examples follow.
Item CS(=O)(=O)CCNCc1ccc(-c2ccc3ncnc(Nc4ccc(OCc5ccccc5)c(Cl)c4)c3c2)o1.Cl [GW574783] : %Inh beneath 10%, strictly?
label 0

Item O=C(Nc1ccccc1)Nc1ccc(Oc2ccc3nccn3n2)cc1 : %Inh beneath 10%, strictly?
label 0

Item CSc1ccc(NC2=C(c3ccccc3Cl)C(=O)NC2=O)cc1 [SB-342411] : %Inh beneath 10%, strictly?
label 0

Item O=C(CCO)NCCn1ccc2ncnc(Nc3ccc(Oc4cccc(C(F)(F)F)c4)c(Cl)c3)c21 : %Inh beneath 10%, strictly?
label 1

More entries:
Item Cc1ccc(NC(=O)c2cccc(C#N)c2)cc1-c1ccc(C(=O)Nc2ccncc2)cc1 [GSK1398463] : %Inh beneath 10%, strictly?
label 0

Item Clc1cc(Nc2ncnc3cc[nH]c23)ccc1OCc1ccccn1 : %Inh beneath 10%, strictly?
label 0

Item Fc1ccc(Nc2nccc(-c3c(-c4ccc(Cl)cc4)nn4ncccc34)n2)cc1F [GW829058] : %Inh beneath 10%, strictly?
label 0

Item FC(F)(F)c1ccc(-c2cc(-c3c[nH]nc3-c3ccccn3)ccn2)cc1 [GW599550] : %Inh beneath 10%, strictly?
label 0

Item CN1CCC(n2cnc(-c3ccc(F)cc3)c2-c2ccnc(NC3CCNCC3)n2)CC1 [SB-229482] : %Inh beneath 10%, strictly?
label 0

Item Clc1ccc(-c2cc(-c3c[nH]nc3-c3ccccn3)ccn2)cc1 [GW681251] : %Inh beneath 10%, strictly?
label 1

Item NC(=O)c1sc(-n2cnc3ccccc32)cc1OCc1ccccc1F [GSK1024306] : %Inh beneath 10%, strictly?
label 1

Item O=C(Nc1ccccc1F)NC1CCN(c2ccnc(Nc3ccc(F)cc3)n2)C1 (stereo not drawn) [GSK1379722] : %Inh beneath 10%, strictly?
label 0

Item O=C(NCCCN1CCCC1=O)c1cnc(NCc2cc(Cl)ccc2Cl)nc1NC1CCNCC1 : %Inh beneath 10%, strictly?
label 1

Item OCCOCCn1ccc2ncnc(Nc3ccc(Oc4cccc(Cl)c4)c(Cl)c3)c21 : %Inh beneath 10%, strictly?
label 1
